Entries below carry reported pKi on 5-hydroxytryptamine receptor 1B (Homo sapiens).
Sequence (P28222 whole entry): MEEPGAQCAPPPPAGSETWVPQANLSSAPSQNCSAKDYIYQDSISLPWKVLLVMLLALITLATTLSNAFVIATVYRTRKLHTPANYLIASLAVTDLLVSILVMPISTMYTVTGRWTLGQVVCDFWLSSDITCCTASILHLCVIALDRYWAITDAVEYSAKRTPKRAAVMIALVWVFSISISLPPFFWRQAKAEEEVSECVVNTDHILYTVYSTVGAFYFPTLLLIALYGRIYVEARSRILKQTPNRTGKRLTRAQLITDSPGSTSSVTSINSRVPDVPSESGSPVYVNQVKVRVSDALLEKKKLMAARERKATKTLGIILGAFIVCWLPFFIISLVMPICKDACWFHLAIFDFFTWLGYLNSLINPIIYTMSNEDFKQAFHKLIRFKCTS
Notebook: values listed as pKi are -log10 of the concentration (mol/L).

Here's what some known entries look like.
COc1ccc(NC(=O)N2CCN(c3ccc(F)cc3)CC2)cc1N1CCN(C)CC1 | 7.42
COc1ccc(NC(=O)N2CCN(c3ccccc3F)CC2)cc1N1CCN(C)CC1 | 7.74
COc1ccc(NC(=O)N2CCN(c3ccc(-c4ccccc4)cc3)CC2)cc1N1CCN(C)CC1 | 7.86

Query: Given COc1ccc(NC(=O)N2CCN(c3ccc(C(F)(F)F)cc3)CC2)cc1N1CCN(C)CC1 , report its pKi on 5-hydroxytryptamine receptor 1B (Homo sapiens).
Result: 7.55

Query: State pKi on 5-hydroxytryptamine receptor 1B (Homo sapiens). Entry: COc1ccc(NC(=O)N2CCN(c3ccccc3Cl)CC2)cc1N1CCN(C)CC1
Result: 7.95

Query: Fill in pKi for COc1ccc(NC(=O)N2CCN(c3ccccc3OC)CC2)cc1N1CCN(C)CC1 tested with 5-hydroxytryptamine receptor 1B (Homo sapiens).
Result: 7.91

* * *

Entries and their Ki values follow.
# Assay System: 5-hydroxytryptamine receptor 1A (Homo sapiens, UniProt P08908)
# Sequence (P08908 whole entry): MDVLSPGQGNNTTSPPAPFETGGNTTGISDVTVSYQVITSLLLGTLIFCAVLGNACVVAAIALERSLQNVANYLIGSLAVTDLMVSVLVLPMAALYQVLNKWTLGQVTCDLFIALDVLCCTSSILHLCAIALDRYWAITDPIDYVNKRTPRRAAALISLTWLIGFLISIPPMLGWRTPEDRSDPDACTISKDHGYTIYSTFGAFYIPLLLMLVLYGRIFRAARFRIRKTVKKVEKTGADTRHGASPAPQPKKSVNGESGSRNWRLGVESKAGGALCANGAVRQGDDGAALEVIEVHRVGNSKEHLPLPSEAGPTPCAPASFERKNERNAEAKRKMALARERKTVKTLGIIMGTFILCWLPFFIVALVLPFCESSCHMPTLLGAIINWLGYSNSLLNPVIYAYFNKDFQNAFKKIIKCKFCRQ
# Method Description: In vitro binding affinity towards cloned human 5-HT1A receptor using [3H]5-carboximidotryptamine as radioligand
Please give a number only; it is taken to be in nM.

Observe how each entry below is paired with its result.
COc1ccc(NC(=O)N2CCN(c3ccc(F)cc3)CC2)cc1N1CCN(C)CC1 | 1080
COc1ccc(NC(=O)N2CCN(c3ccc(C(F)(F)F)cc3)CC2)cc1N1CCN(C)CC1 | 382

Query: Return value of Ki for input COc1ccc(NC(=O)N2CCN(c3ccccc3F)CC2)cc1N1CCN(C)CC1 , no commentary.
Result: 315

Query: Give the value of Ki reported for the following: COc1ccc(NC(=O)N2CCN(c3ccc(Cl)cc3)CC2)cc1N1CCN(C)CC1
Result: 52.5

* * *

# Assay System: 5-hydroxytryptamine receptor 6 (Homo sapiens)
# Sequence (P50406 whole entry): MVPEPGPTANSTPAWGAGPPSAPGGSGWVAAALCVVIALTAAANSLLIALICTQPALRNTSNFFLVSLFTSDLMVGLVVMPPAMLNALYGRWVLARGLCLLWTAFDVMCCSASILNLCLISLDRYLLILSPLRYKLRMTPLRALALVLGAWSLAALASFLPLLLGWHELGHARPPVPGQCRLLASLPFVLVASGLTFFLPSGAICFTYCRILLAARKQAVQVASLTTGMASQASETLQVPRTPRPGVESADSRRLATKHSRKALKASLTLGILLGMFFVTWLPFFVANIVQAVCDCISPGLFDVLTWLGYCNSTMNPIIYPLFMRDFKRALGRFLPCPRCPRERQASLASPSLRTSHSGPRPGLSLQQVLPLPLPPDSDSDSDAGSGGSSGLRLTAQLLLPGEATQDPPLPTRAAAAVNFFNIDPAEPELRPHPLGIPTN
pKi: −log10 of the molar value.
Quantity Measured: pKi

COc1ccc(NC(=O)N2CCN(c3ccc(SC)cc3)CC2)cc1N1CCN(C)CC1 | < 5.00
COc1ccc(NC(=O)c2ccc(-c3ccc(-c4noc(C)n4)cc3C)cc2)cc1N1CCN(C)CC1 [GR-127935] | < 5.00

Query: Provide measured pKi on 5-hydroxytryptamine receptor 6 (Homo sapiens) for COc1ccc(NC(=O)N2CCN(c3ccccc3F)CC2)cc1N1CCN(C)CC1 please.
Result: 6.08

* * *

# Assay System: Muscarinic acetylcholine receptor M3 (Homo sapiens)
# Sequence (P20309 whole entry): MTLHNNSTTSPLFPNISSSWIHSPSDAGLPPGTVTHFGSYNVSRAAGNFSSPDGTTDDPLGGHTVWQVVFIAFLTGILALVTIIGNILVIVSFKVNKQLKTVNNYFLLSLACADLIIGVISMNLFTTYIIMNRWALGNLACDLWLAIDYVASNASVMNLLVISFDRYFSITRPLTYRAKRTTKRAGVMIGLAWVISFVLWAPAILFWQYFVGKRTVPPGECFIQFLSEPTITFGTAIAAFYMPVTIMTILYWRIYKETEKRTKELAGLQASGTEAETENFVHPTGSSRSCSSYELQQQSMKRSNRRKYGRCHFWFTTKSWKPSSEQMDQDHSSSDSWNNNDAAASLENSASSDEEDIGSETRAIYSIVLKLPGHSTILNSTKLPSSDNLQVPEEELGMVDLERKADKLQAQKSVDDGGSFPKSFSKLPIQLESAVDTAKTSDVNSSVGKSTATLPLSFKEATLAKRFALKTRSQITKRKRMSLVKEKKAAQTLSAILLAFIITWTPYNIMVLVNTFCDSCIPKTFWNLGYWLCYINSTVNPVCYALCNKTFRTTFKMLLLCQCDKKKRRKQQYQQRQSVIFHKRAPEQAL
pKi: −log10 of the molar value.
Quantity Measured: pKi

Query: Fill in pKi for record COc1ccc(NC(=O)N2CCN(c3ccccc3Cl)CC2)cc1N1CCN(C)CC1
Result: < 5.00

* * *

pKi: −log10 of the molar value.
For D(3) dopamine receptor (Homo sapiens), measured pKi is reported for the entries below.

Recorded pKi, per entry:
COc1ccccc1N1CCC(C(=O)Nc2ccc(OC)c(N3CCN(C)CC3)c2)CC1 | < 5.00
COc1ccc(NC(=O)N2CCN(c3ccc(F)cc3)CC2)cc1N1CCN(C)CC1 | < 5.00
COc1ccc(NC(=O)N2CCN(c3ccccc3F)CC2)cc1N1CCN(C)CC1 | < 5.00
COc1ccc(NC(=O)N2CCN(c3ccc(C(F)(F)F)cc3)CC2)cc1N1CCN(C)CC1 | < 5.00

Field: next molecule
Query: // fetch pKi given entry COc1ccc(NC(=O)N2CCN(c3ccccc3OC)CC2)cc1N1CCN(C)CC1
Result: < 5.00

* * *

# Assay System: Muscarinic acetylcholine receptor M4 (Homo sapiens)
# Sequence (P08173 whole entry): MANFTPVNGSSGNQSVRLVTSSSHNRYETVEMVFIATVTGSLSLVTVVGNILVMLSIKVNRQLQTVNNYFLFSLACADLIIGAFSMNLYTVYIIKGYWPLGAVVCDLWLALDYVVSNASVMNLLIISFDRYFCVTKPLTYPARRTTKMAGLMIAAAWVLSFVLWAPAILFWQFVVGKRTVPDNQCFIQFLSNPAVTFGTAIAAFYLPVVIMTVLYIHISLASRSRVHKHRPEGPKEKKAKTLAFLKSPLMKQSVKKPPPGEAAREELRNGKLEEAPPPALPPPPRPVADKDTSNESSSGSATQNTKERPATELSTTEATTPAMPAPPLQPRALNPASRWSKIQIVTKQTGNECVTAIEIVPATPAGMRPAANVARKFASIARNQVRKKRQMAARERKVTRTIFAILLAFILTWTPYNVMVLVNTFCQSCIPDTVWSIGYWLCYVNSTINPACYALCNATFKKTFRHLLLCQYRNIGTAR
pKi: −log10 of the molar value.
Quantity Measured: pKi

Answered examples (2):
COc1ccc(NC(=O)N2CCN(c3ccc(F)cc3)CC2)cc1N1CCN(C)CC1 | < 5.00
COc1ccc(NC(=O)N2CCN(c3ccc(Cl)cc3)CC2)cc1N1CCN(C)CC1 | < 5.00

Kindly review the next compound as well.
Query: Find the measured pKi of COc1ccccc1N1CCC(C(=O)Nc2ccc(OC)c(N3CCN(C)CC3)c2)CC1 and report it.
Result: < 5.00

* * *

pKi: −log10 of the molar value.
What follows is a collection of pKi values obtained with Mu-type opioid receptor (Homo sapiens, UniProt P35372).
Sequence (P35372 whole entry): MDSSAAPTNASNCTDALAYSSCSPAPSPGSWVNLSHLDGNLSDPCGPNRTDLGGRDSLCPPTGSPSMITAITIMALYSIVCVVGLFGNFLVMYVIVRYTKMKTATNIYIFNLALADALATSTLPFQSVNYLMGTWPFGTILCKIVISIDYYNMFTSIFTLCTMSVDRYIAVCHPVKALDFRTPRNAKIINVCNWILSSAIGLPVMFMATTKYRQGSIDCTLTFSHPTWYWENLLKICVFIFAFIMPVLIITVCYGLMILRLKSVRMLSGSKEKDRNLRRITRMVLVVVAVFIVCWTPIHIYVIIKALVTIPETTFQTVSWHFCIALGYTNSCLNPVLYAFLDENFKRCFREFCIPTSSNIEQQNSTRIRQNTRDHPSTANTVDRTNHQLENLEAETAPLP

Below, each entry is followed by its recorded pKi result.
COc1ccc(NC(=O)N2CCN(c3ccccc3OC)CC2)cc1N1CCN(C)CC1 | < 5.00
COc1ccc(NC(=O)N2CCN(c3ccc(Cl)cc3)CC2)cc1N1CCN(C)CC1 | < 5.00
COc1ccc(NC(=O)N2CCN(c3ccc(C(F)(F)F)cc3)CC2)cc1N1CCN(C)CC1 | < 5.00

Proceeding to the next compound to report its pKi.
Query: Name the recorded pKi of the item COc1ccc(NC(=O)N2CCN(c3ccccc3Cl)CC2)cc1N1CCN(C)CC1 in your answer.
Result: < 5.00

* * *

Record type: pKi measurement. Applies to: 5-hydroxytryptamine receptor 1D (Homo sapiens)
# log scale: pKi equals minus log10 of the concentration in mol/L

COc1ccc(NC(=O)N2CCN(c3ccccc3Cl)CC2)cc1N1CCN(C)CC1 | 7.46

Query: Report measured pKi; entry is COc1ccc(NC(=O)N2CCN(c3ccc(F)cc3)CC2)cc1N1CCN(C)CC1
Result: 6.77

Query: Name the recorded pKi of the item COc1ccc(NC(=O)N2CCN(c3ccccc3OC)CC2)cc1N1CCN(C)CC1 in your answer.
Result: 6.98

Query: Quick one: give measured pKi for COc1ccc(NC(=O)N2CCN(c3ccc(Cl)cc3)CC2)cc1N1CCN(C)CC1
Result: 8.19

* * *

List of pKi tested on UniProt P28223.
Sequence (P28223 whole entry): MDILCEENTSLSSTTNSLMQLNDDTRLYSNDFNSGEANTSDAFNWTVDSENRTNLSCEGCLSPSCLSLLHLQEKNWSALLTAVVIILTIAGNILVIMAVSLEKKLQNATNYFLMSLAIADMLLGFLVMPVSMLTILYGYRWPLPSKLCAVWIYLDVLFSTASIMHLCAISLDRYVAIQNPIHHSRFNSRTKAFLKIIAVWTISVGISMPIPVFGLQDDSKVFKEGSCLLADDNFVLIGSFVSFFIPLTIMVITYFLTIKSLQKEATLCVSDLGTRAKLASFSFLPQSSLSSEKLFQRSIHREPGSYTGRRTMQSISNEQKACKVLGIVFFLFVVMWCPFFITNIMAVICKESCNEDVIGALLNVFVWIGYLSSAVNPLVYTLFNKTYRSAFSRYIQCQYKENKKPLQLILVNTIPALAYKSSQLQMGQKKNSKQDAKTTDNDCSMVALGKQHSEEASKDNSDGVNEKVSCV
# reply with the number alone; pKi is -log10 of concentration in mol/L

Below: 5 molecules and their reported pKi.
COc1ccc(NC(=O)N2CCN(c3ccc(SC)cc3)CC2)cc1N1CCN(C)CC1 | 5.87
COc1ccc(NC(=O)N2CCN(c3ccccc3OC)CC2)cc1N1CCN(C)CC1 | 5.17
COc1ccc(NC(=O)c2ccc(-c3ccc(-c4noc(C)n4)cc3C)cc2)cc1N1CCN(C)CC1 | 7.37
COc1ccc(NC(=O)N2CCN(c3ccc(Cl)cc3)CC2)cc1N1CCN(C)CC1 | 6.00
COc1ccc(NC(=O)N2CCN(c3ccc(C(F)(F)F)cc3)CC2)cc1N1CCN(C)CC1 | 6.21

Query: Print UniProt P28223 pKi for COc1ccc(NC(=O)N2CCN(c3ccccc3Cl)CC2)cc1N1CCN(C)CC1 .
Result: 5.22

* * *

pKi: −log10 of the molar value.
A set of molecules tested on Histamine H1 receptor (Homo sapiens, UniProt P35367), with measured pKi:

COc1ccc(NC(=O)N2CCN(c3ccc(-c4ccccc4)cc3)CC2)cc1N1CCN(C)CC1 | < 5.00

Proceeding to the next molecule to report its pKi.
Query: // fetch pKi for COc1ccccc1N1CCC(C(=O)Nc2ccc(OC)c(N3CCN(C)CC3)c2)CC1 ; system: Histamine H1 receptor (Homo sapiens, UniProt P35367)
Sequence (P35367 whole entry): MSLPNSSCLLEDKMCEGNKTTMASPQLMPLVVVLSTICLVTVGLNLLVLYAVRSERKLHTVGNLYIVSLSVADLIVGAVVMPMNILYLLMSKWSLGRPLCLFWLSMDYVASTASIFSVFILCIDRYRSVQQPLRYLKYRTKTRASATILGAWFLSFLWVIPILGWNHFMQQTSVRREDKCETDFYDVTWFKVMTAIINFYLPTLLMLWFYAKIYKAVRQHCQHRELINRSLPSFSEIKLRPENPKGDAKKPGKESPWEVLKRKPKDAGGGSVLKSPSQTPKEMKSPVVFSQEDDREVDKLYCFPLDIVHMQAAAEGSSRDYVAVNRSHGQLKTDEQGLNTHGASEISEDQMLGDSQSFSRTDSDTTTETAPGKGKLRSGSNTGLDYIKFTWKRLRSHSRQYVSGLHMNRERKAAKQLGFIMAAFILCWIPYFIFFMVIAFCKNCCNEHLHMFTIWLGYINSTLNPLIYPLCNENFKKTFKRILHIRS
Result: < 5.00

* * *

Reported pKi by item:
# Assay System: UniProtKB P08908
# Method Description: In vitro binding affinity towards cloned human 5-HT1A receptor using [3H]5-carboximidotryptamine as radioligand
Scale note: pKi = -log10(concentration in M).

Recorded pKi, per entry:
COc1ccccc1N1CCC(C(=O)Nc2ccc(OC)c(N3CCN(C)CC3)c2)CC1 | 7.81
COc1ccc(NC(=O)N2CCN(c3ccc(SC)cc3)CC2)cc1N1CCN(C)CC1 | 6.05
COc1ccc(NC(=O)N2CCN(c3ccc(-c4ccccc4)cc3)CC2)cc1N1CCN(C)CC1 | 6.39
COc1ccc(NC(=O)c2ccc(-c3ccc(-c4noc(C)n4)cc3C)cc2)cc1N1CCN(C)CC1 [GR-127935] | 7.10

Here is another compound to look at.
Query: Quick one: give measured pKi for COc1ccc(NC(=O)N2CCN(c3ccccc3Cl)CC2)cc1N1CCN(C)CC1
Result: 6.47
